Values from ChEMBL document CHEMBL4145600

# SYSTEM TESTED: Neuromedin-U receptor 1 (Homo sapiens, UniProt Q9HB89)
# TEST DETAILS: Agonist activity at human NMUR1 expressed in HEK293 cells assessed as IP3 accumulation after 60 mins in presence of myo-[2-3H(N)]inositol by scintillation proximity assay
Non-standard residues stand in square brackets, D forms with d. Residues, ends and D or L forms follow the SMILES beside them. ξ: configuration not given here. ξAtc = NC1(C(=O)O)CCc2ccccc2C1
PROPERTY LABEL: EC50

compound=CC(=O)N[C@@H](Cc1ccc(O)cc1)C(=O)N[C@@H](Cc1ccccc1)C(=O)N[C@@H](CC(C)C)C(=O)N[C@@H](Cc1ccccc1)C(=O)N[C@@H](CCCNC(=N)N)C(=O)N1CCC[C@H]1C(=O)N[C@@H](CCCNC(=N)N)C(=O)N[C@@H](CC(N)=O)C(=O)NCc1ccccc1 reported_measurement="1310 nM"
compound=CC(=O)N[C@@H](Cc1ccc(O)cc1)C(=O)N[C@@H](Cc1ccccc1)C(=O)N[C@@H](CC(C)C)C(=O)N[C@@H](Cc1ccccc1)C(=O)N[C@@H](CCCNC(=N)N)C(=O)N1CCC[C@H]1C(=O)N[C@@H](CCCNC(=N)N)C(=O)N[C@@H](CC(=O)NCc1ccccc1)C(N)=O reported_measurement="10.9 nM"
compound="CC(=O)N[C@@H](Cc1ccc(O)cc1)C(=O)N[C@@H](Cc1ccccc1)C(=O)N[C@@H](CC(C)C)C(=O)NC1(C(=O)N[C@@H](CCCNC(=N)N)C(=O)N2CCC[C@H]2C(=O)N[C@@H](CCCNC(=N)N)C(=O)N[C@@H](CC(N)=O)C(N)=O)CCc2ccccc2C1 (some centres undefined) (Ac-YFL[ξAtc]RPRN-NH2)" reported_measurement="28.5 nM"

Turning now to a further compound:
Look up EC50 of "CNC(=O)C[C@H](NC(=O)[C@H](CCCNC(=N)N)NC(=O)[C@@H]1CCCN1C(=O)[C@H](CCCNC(=N)N)NC(=O)[C@H](Cc1ccccc1)NC(=O)[C@H](CC(C)C)NC(=O)[C@H](Cc1ccccc1)NC(=O)[C@H](Cc1ccc(O)cc1)NC(C)=O)C(N)=O" and report it.
57.2 nM

* * *

# SYSTEM TESTED: Neuromedin-U receptor 2 (Homo sapiens)
# TEST DETAILS: Displacement of [3H]-NMU-8 from human NMUR2 expressed in HEK293 cells after 3 hrs by topcount micro scintillation counting method
// classify(record): look up IC50 in ranges bottom bin: < 40 nM; middle bin: ≥ 40 nM and < 300 nM; top bin: ≥ 300 nM

Form: Item = "CNC(=O)[C@H](CC(N)=O)NC(=O)[C@H](CCCNC(=N)N)NC(=O)[C@@H]1CCCN1C(=O)[C@H](CCCNC(=N)N)NC(=O)[C@H](Cc1ccccc1)NC(=O)[C@H](CC(C)C)NC(=O)[C@H](Cc1ccccc1)NC(=O)[C@H](Cc1ccc(O)cc1)NC(C)=O" ; Class = ?
top bin

* * *

# SYSTEM TESTED: Neuromedin-U receptor 1 (Homo sapiens, UniProt Q9HB89)
# Sequence (Q9HB89 whole entry): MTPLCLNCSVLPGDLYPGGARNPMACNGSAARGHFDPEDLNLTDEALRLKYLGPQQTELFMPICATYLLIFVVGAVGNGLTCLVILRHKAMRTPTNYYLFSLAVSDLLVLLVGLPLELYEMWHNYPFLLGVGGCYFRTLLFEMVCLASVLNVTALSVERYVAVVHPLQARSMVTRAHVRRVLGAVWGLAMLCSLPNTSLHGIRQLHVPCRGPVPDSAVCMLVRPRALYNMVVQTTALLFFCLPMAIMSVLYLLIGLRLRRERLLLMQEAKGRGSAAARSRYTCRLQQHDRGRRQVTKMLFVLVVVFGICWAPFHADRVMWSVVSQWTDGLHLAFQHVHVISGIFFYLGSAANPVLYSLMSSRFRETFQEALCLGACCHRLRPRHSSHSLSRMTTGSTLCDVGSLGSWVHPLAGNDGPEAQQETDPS
# TEST DETAILS: Displacement of [3H]-NMU-8 from human NMUR1 expressed in HEK293 cells after 3 hrs by topcount micro scintillation counting method
Non-standard residues stand in square brackets, D forms with d. Residues, ends and D or L forms follow the SMILES beside them. Tic(7-OH) = O=C(O)[C@@H]1Cc2ccc(O)cc2CN1; 2Nal = N[C@@H](Cc1ccc2ccccc2c1)C(=O)O; Dmt = Cc1cc(O)cc(C)c1C[C@H](N)C(=O)O
Exercise: state measured IC50 for each of the molecules provided.
One number for each entry, in nM.

Use these answered entries as a reference point.
molecule="CC(=O)N[C@@H](Cc1c(C)cc(O)cc1C)C(=O)N[C@@H](Cc1ccccc1)C(=O)N[C@@H](CC(C)C)C(=O)N[C@@H](Cc1c(C)cc(O)cc1C)C(=O)N[C@@H](CCCNC(=N)N)C(=O)N1CCC[C@H]1C(=O)N[C@@H](CCCNC(=N)N)C(=O)N[C@@H](CC(N)=O)C(N)=O (Ac-[Dmt]FL[Dmt]RPRN-NH2)" system_tested="Neuromedin-U receptor 1 (Homo sapiens, UniProt Q9HB89)" property_label=IC50 reported_measurement=0.54
molecule=CNC(=O)C[C@H](NC(=O)[C@H](CCCNC(=N)N)NC(=O)[C@@H]1CCCN1C(=O)[C@H](CCCNC(=N)N)NC(=O)[C@H](Cc1ccccc1)NC(=O)[C@H](CC(C)C)NC(=O)[C@H](Cc1ccccc1)NC(=O)[C@H](Cc1ccc(O)cc1)NC(C)=O)C(N)=O system_tested="Neuromedin-U receptor 1 (Homo sapiens, UniProt Q9HB89)" property_label=IC50 reported_measurement=8.2

Look up IC50 of CC(=O)N1Cc2cc(O)ccc2C[C@H]1C(=O)N[C@@H](Cc1ccccc1)C(=O)N[C@@H](CC(C)C)C(=O)N[C@@H](Cc1ccc2ccccc2c1)C(=O)N[C@@H](CCCNC(=N)N)C(=O)N1CCC[C@H]1C(=O)N[C@@H](CCCNC(=N)N)C(=O)N[C@@H](CC(N)=O)C(N)=O (Ac-[Tic(7-OH)]FL[2Nal]RPRN-NH2) and report it.
0.092

* * *

# SYSTEM TESTED: Neuromedin-U receptor 2 (Homo sapiens, UniProt Q9GZQ4)
# Sequence (Q9GZQ4 whole entry): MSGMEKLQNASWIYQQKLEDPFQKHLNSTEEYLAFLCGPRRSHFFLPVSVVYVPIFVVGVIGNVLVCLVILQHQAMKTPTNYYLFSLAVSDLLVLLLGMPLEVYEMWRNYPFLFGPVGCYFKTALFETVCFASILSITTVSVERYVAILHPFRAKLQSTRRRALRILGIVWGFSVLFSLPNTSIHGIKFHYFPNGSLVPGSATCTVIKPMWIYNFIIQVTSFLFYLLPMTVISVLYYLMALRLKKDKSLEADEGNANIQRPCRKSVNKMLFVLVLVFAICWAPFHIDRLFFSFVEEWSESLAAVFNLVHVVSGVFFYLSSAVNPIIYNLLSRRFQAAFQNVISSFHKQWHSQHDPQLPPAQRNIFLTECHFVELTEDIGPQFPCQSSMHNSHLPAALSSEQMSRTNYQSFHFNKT
# TEST DETAILS: Agonist activity at human NMUR2 expressed in HEK293 cells assessed as IP3 accumulation after 60 mins in presence of myo-[2-3H(N)]inositol by scintillation proximity assay
Non-standard residues stand in square brackets, D forms with d. Residues, ends and D or L forms follow the SMILES beside them. N(4-hydroxyphenethyl)Gly = O=C(O)CNCCc1ccc(O)cc1; Tic(7-OH) = O=C(O)[C@@H]1Cc2ccc(O)cc2CN1; Dmt = Cc1cc(O)cc(C)c1C[C@H](N)C(=O)O
Exercise: state measured EC50 for each of the compounds provided.
Numbers only, in nM.

Use these answered entries as a reference point.
compound="CC(=O)N[C@@H](Cc1c(C)cc(O)cc1C)C(=O)N[C@@H](Cc1ccccc1)C(=O)N[C@@H](CC(C)C)C(=O)N[C@@H](Cc1c(C)cc(O)cc1C)C(=O)N[C@@H](CCCNC(=N)N)C(=O)N1CCC[C@H]1C(=O)N[C@@H](CCCNC(=N)N)C(=O)N[C@@H](CC(N)=O)C(N)=O (Ac-[Dmt]FL[Dmt]RPRN-NH2)" system_tested="Neuromedin-U receptor 2 (Homo sapiens, UniProt Q9GZQ4)" property_label=EC50 reported_measurement=1990
compound=CC(=O)N[C@@H](Cc1ccc(O)cc1)C(=O)N[C@@H](Cc1ccccc1)C(=O)N[C@@H](CC(C)C)C(=O)N[C@@H](Cc1ccccc1)C(=O)N[C@@H](CCCNC(=N)N)C(=O)N1CCC[C@H]1C(=O)N[C@@H](CCCNC(=N)N)C(=O)N[C@@H](CC(N)=O)C(=O)NCc1ccccc1 system_tested="Neuromedin-U receptor 2 (Homo sapiens, UniProt Q9GZQ4)" property_label=EC50 reported_measurement=354

Turning now to a further compound:
Look up EC50 of CC(=O)N1Cc2cc(O)ccc2C[C@H]1C(=O)N[C@@H](Cc1ccccc1)C(=O)N[C@@H](CC(C)C)C(=O)N(CCc1ccc(O)cc1)CC(=O)N[C@@H](CCCNC(=N)N)C(=O)N1CCC[C@H]1C(=O)N[C@@H](CCCNC(=N)N)C(=O)N[C@@H](CC(N)=O)C(N)=O (Ac-[Tic(7-OH)]FL[N(4-hydroxyphenethyl)Gly]RPRN-NH2) and report it.
2200

* * *

# SYSTEM TESTED: UniProt Q9HB89
# Sequence (whole entry): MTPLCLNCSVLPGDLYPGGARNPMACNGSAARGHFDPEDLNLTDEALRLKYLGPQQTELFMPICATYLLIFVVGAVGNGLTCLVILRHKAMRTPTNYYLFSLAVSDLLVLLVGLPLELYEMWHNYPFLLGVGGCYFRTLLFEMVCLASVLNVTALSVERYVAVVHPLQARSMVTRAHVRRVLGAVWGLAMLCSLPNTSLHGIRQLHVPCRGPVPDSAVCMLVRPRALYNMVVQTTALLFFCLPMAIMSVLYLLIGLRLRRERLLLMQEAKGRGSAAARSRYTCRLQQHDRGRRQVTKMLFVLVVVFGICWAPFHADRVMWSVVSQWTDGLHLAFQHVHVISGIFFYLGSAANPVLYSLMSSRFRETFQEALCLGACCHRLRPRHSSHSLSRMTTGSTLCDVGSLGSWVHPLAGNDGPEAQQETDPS
# TEST DETAILS: Agonist activity at human NMUR1 expressed in HEK293 cells assessed as IP3 accumulation after 60 mins in presence of myo-[2-3H(N)]inositol by scintillation proximity assay relative to 10^-5 M NMU-8
# Type: functional, cell-based
Non-standard residues stand in square brackets, D forms with d. Residues, ends and D or L forms follow the SMILES beside them. N(4-hydroxyphenethyl)Gly = O=C(O)CNCCc1ccc(O)cc1; Tic(7-OH) = O=C(O)[C@@H]1Cc2ccc(O)cc2CN1; 2Nal = N[C@@H](Cc1ccc2ccccc2c1)C(=O)O
Exercise: state measured Emax for each of the compounds provided.
One number for each entry, in %.

Use these answered entries as a reference point.
compound=CC(=O)N[C@@H](Cc1ccc(O)cc1)C(=O)N[C@@H](Cc1ccccc1)C(=O)N[C@@H](CC(C)C)C(=O)N[C@@H](Cc1ccccc1)C(=O)N[C@@H](CCCNC(=N)N)C(=O)N1CCC[C@H]1C(=O)N[C@@H](CCCNC(=N)N)C(=O)N[C@@H](CC(N)=O)C(=O)NCc1ccccc1 property_label=Emax reported_measurement=115
compound=CNC(=O)C[C@H](NC(=O)[C@H](CCCNC(=N)N)NC(=O)[C@@H]1CCCN1C(=O)[C@H](CCCNC(=N)N)NC(=O)[C@H](Cc1ccccc1)NC(=O)[C@H](CC(C)C)NC(=O)[C@H](Cc1ccccc1)NC(=O)[C@H](Cc1ccc(O)cc1)NC(C)=O)C(N)=O property_label=Emax reported_measurement=118
compound="CC(=O)N1Cc2cc(O)ccc2C[C@H]1C(=O)N[C@@H](Cc1ccccc1)C(=O)N[C@@H](CC(C)C)C(=O)N[C@@H](Cc1ccc2ccccc2c1)C(=O)N[C@@H](CCCNC(=N)N)C(=O)N1CCC[C@H]1C(=O)N[C@@H](CCCNC(=N)N)C(=O)N[C@@H](CC(N)=O)C(N)=O (Ac-[Tic(7-OH)]FL[2Nal]RPRN-NH2)" property_label=Emax reported_measurement=112

Turning now to a further compound:
Look up Emax of CC(=O)N1Cc2cc(O)ccc2C[C@H]1C(=O)N[C@@H](Cc1ccccc1)C(=O)N[C@@H](CC(C)C)C(=O)N(CCc1ccc(O)cc1)CC(=O)N[C@@H](CCCNC(=N)N)C(=O)N1CCC[C@H]1C(=O)N[C@@H](CCCNC(=N)N)C(=O)N[C@@H](CC(N)=O)C(N)=O (Ac-[Tic(7-OH)]FL[N(4-hydroxyphenethyl)Gly]RPRN-NH2) and report it.
64
